Parameter 'readout' = GI50; parameter 'system' = U251 CNS.

Consider the worked cases shown below.
compound=CN1CCN(Cc2c[nH]c3c2C(=O)c2c(c(O)c4ccccc4c2O)C3=O)CC1 data_value="11.1 µM"
compound="CCCCC(SC(=S)N1CCCC1)C(=O)Nc1nc(CC(=O)OCC)cs1 (stereo not drawn)" data_value="53.8 µM"
compound=Cc1ccc(/C=C/c2c(C(=O)/C=C/c3ccccc3)c(C)nc3ccccc23)cc1 data_value="1.5 µM"

Query string: What measured GI50 goes with COc1ccc(-c2cc(=O)n(-c3nc4ccccc4[nH]3)[nH]2)cc1OC ?
Result string: 4.2 µM

Query string: So what does the record say about GI50 for CCCCNNC(=O)c1ccc(Br)cc1 ?
Result string: 3.78 µM

----------
Let's look at some molecules and their measured TGI.
system: HCC-2998 colon; assay: NCI tumour cell line growth inhibition, 48 h

Recorded TGI, per entry:
molecule=Cn1cnc(N)c(N=O)c1=O data_value="> 10 µM"
molecule=Cc1cc(-n2nnc(C(=O)O)c2-c2ccccc2)c2ccc(Cl)cc2n1 data_value="> 100 µM"
molecule=CC(C)(C)OC(=O)[C@@H]1CCC(=O)N1C1(c2ccccc2)c2ccccc2-c2ccccc21 data_value="> 100 µM"
molecule=C#C[C@]1(O)CC[C@H]2[C@@H]3CC=C4c5sc(Nc6cc(F)ccc6F)nc5CC[C@]4(C)[C@H]3CC[C@@]21C data_value="3.19 µM"
molecule=c1ccc(-c2nn3c(c2-c2ccnc4cc(OCCN5CCOCC5)ccc24)CCC3)nc1 data_value="> 100 µM"
molecule="Cc1cn(C2CCC(CO)(CF)O2)c(=O)[nH]c1=O (centres undefined)" data_value="> 100 µM"
molecule=Cc1ccc(/C=C/c2c(C(=O)/C=C/c3ccccc3)c(C)nc3ccccc23)cc1 data_value="3.35 µM"
molecule="Fc1cccc(F)c1C1SCc2nc3cc(Cl)c(Cl)cc3n21 (centres undefined)" data_value="> 100 µM"

Query string: Item O=C1c2cc(Cc3ccccc3)c(=O)c(Cc3ccccc3)cc2C(=O)c2cc(Cc3ccccc3)c(=O)c(Cc3ccccc3)cc21 with HCC-2998 colon - TGI?
Result string: > 100 µM

----------
tested on: UACC-257 melanoma; assay: NCI tumour cell line growth inhibition, 48 h
Collected GI50 values appear next to each entry.

Here is how some compounds turned out for GI50.
compound=CN1CCN(Cc2c[nH]c3c2C(=O)c2c(c(O)c4ccccc4c2O)C3=O)CC1 data_value="15.9 µM"
compound=CCC(=O)N1C/C(=C/c2ccc(Cl)cc2)C(=O)/C(=C/c2ccc(Cl)cc2)C1 data_value="1.64 µM"

Query string: Requested read-out GI50, target or system UACC-257 melanoma, entry O=C(O)C[C@H](O)C[C@H](O)/C=C/c1c(C2CC2)nc2ccccc2c1-c1ccc(F)cc1
Result string: > 100 µM

----------
system: HL-60(TB) leukemia; assay: NCI tumour cell line growth inhibition, 48 h; in the data active = GI50 below about 0.43 µM; inactive = the rest
Output constraint: value belongs to active, inactive

smiles_str=OCCCCC#Cc1ccccc1C#Cc1ccc(O)cc1 target="HL-60(TB) leukemia" cat=inactive
smiles_str=CN1CCN(Cc2c[nH]c3c2C(=O)c2c(c(O)c4ccccc4c2O)C3=O)CC1 target="HL-60(TB) leukemia" cat=inactive
smiles_str=CCCCNNC(=O)c1ccc(Br)cc1 target="HL-60(TB) leukemia" cat=inactive
smiles_str=COc1ccc([C@H](CC(=O)O)N2CCN(CCCc3ccc4c(n3)NCCC4)C2=O)cn1 target="HL-60(TB) leukemia" cat=inactive
smiles_str=O=[N+]([O-])c1cc[n+]([O-])c2ccccc12 target="HL-60(TB) leukemia" cat=inactive

Query string: Short answer needed: outcome of this test for COC(=O)c1cc(-c2ccccc2)[nH]c1N/N=C/c1c(Cl)cccc1Cl ?
Result string: active

Query string: Hi, do you know how CCC[CH2][Sn]([CH2]CCC)([O]C(=O)c1cc(OC)c(OC)cc1OC)[O][Sn]([CH2]CCC)([CH2]CCC)[O]C(=O)c1cc(OC)c(OC)cc1OC came out in this test?
Result string: active
